# target: α-glucosidase (Saccharomyces cerevisiae)
# Sequence (P53341 whole entry): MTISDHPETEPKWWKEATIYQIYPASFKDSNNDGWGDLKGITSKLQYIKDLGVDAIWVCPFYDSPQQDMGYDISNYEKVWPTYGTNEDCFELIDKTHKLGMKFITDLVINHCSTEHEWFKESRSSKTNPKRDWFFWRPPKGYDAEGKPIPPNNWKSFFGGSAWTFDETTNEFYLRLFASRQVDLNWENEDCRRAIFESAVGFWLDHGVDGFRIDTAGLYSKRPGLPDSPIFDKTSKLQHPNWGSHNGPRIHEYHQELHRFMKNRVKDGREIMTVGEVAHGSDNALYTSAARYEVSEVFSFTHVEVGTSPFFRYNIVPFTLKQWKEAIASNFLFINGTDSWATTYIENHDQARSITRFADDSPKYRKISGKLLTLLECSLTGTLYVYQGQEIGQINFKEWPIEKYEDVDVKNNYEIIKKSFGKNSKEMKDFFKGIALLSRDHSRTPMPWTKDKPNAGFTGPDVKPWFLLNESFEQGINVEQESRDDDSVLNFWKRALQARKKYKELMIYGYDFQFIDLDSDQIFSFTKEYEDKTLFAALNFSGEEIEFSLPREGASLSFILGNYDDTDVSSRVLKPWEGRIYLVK
# test_description: In vitro α-glucosidase inhibition assay
# Format: biochemical
# experimental_conditions: NA = not active, read-out: IC50 (µM) ± SEM α-glucosidase
# label = 1 if IC50 < 100 µM else 0

Observe how each entry below is paired with its result.
{"compound_string": "CCCSc1nnc(Cc2ccccc2Nc2c(Cl)cccc2Cl)n1-c1ccc(Cl)c(Cl)c1", "group_label": 1}
{"compound_string": "Sc1nnc(Cc2ccccc2Nc2c(Cl)cccc2Cl)n1-c1ccc(Cl)cc1Cl", "group_label": 1}
{"compound_string": "O=C(Cc1ccccc1Nc1c(Cl)cccc1Cl)NNC(=S)Nc1ccccc1F", "group_label": 1}

[Q] Check if IC50 falls below 100 µM for Fc1ccc(-n2c(S)nnc2Cc2ccccc2Nc2c(Cl)cccc2Cl)cc1 .
[A] 0

====

# Test system: mononuclear cells (MNCs)
# test_description: Cellular viability assay on mononuclear cells
# Format: cell-based, human
observable: cell viability (%) at 0.25 mM
Entry rule: numbers only, all in %.

{"compound": "Clc1ccc(Nc2nnc(Cc3ccccc3Nc3c(Cl)cccc3Cl)s2)c(Cl)c1 [8e]", "unit_spec": "%", "cell viability (%) at 0.25 mM": 75}
{"compound": "Fc1ccccc1Nc1nnc(Cc2ccccc2Nc2c(Cl)cccc2Cl)o1 [7a]", "unit_spec": "%", "cell viability (%) at 0.25 mM": 76}
{"compound": "O=C(Cc1ccccc1Nc1c(Cl)cccc1Cl)NNC(=S)Nc1ccc(Cl)c(Cl)c1 [4f]", "unit_spec": "%", "cell viability (%) at 0.25 mM": 64}

Please find the next compound below.
[Q] Please supply the value of reported cell viability (%) at 0.25 mM for the item Fc1cccc(Nc2nnc(Cc3ccccc3Nc3c(Cl)cccc3Cl)o2)c1 [7b]
[A] 72

====

# target: soybean 15-LOX (Glycine max)
# Sequence (P08170 1-839): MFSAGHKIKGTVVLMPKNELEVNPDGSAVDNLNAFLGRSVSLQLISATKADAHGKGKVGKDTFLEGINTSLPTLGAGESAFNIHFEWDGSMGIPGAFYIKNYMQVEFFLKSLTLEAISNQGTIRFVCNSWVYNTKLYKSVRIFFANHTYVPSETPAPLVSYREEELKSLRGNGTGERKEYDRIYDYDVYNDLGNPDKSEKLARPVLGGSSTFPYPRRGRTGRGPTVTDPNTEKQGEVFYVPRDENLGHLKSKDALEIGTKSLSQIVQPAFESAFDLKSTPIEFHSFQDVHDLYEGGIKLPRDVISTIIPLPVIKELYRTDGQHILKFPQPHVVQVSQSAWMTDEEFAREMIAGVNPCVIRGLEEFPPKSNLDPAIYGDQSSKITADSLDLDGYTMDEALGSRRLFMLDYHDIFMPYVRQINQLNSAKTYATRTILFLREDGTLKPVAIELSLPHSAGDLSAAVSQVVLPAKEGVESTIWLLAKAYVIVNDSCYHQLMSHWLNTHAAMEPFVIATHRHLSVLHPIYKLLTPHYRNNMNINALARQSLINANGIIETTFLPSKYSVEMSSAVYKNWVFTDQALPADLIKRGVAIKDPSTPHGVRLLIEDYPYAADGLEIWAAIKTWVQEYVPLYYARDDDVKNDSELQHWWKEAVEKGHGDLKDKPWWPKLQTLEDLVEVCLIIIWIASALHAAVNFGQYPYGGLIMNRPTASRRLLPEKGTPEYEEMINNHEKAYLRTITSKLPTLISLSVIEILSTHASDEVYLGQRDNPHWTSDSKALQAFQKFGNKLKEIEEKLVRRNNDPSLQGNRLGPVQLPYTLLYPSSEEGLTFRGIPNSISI
# test_description: In vitro 15-lipoxygenase inhibition assay
# Format: biochemical
# experimental_conditions: read-out: IC50 (µM) ± SEM 15-LOX
# IC50 listing for each entry below
Entry rule: numbers only, all in µM.

{"molecule": "O=c1cc(-c2ccccc2)oc2cc(O)c(O)c(O)c12 [baicalein, reference compound]", "experimental_value": 22}
{"molecule": "Fc1ccccc1Nc1nnc(Cc2ccccc2Nc2c(Cl)cccc2Cl)o1 [7a]", "experimental_value": 98}

[Q] Please supply the value of reported IC50 for the item O=C(Cc1ccccc1Nc1c(Cl)cccc1Cl)NNC(=S)Nc1ccc(Cl)cc1Cl [4e]
[A] 177
